- measured.target: RORγ ligand-binding domain (Homo sapiens, UniProt P51449)
- Construct: Gal4 (galactose-responsive transcription factor); expressed in transfected cells; host or cells: HEK293, transient co-transfection
- Sequence (P51449 269-508 limits assumed): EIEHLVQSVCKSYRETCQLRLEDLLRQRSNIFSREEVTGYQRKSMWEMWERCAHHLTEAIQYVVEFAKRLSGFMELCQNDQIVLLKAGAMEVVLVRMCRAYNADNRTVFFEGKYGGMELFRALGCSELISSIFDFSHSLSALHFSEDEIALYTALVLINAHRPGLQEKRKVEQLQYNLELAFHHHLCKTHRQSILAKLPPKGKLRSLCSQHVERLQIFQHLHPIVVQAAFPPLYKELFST
- test.method.notes: RORγ Reporter Assay (Gal4)
- Assay type: cell-based
- study.conditions: stated as a bound only (Tables 5 a, 6, 7); read-out: Gal4 assay IC50
IC50 reference

Sample answers from the record:
>>> result("NC(=O)CN1CC[C@@H](Cn2ccc3c(N(Cc4ccc(C(F)(F)F)cc4)C4CC4)ncnc32)[C@H](O)C1 (single isomer, unassigned) [Example P6-13-1]")
"< 0.1 µM"
>>> result("NC(=O)Cc1ccc(Cn2ccc3c(N4CCOC[C@@H]4c4ccc(C(F)(F)F)cn4)ncnc32)cc1 [Example 328, reference compound]")
"< 0.1 µM"

INPUT: Find IC50 (RORγ ligand-binding domain (Homo sapiens, UniProt P51449)) for the entry NC(=O)Cc1ccc(Cn2ccc3c(N(Cc4ccc(C(F)(F)F)cc4)C4CC4)ncnc32)cc1 [Example I1, reference compound]
OUTPUT: < 0.1 µM

INPUT: Recorded IC50 for NC(=O)CN1CC[C@@H](Cn2ccc3c(N4CCOC[C@@H]4c4ccc(C(F)(F)F)cn4)ncnc32)[C@H](F)C1 (single isomer, unassigned) [Example Q4-1-1] with RORγ ligand-binding domain (Homo sapiens, UniProt P51449), please?
OUTPUT: < 0.5 µM

INPUT: Hi! What's the reported IC50 for NC(=O)CN1CCC(Cn2ccc3c(N4CCOC[C@@H]4c4ccc(C(F)(F)F)cn4)ncnc32)CC1 [Example Q4-2] on RORγ ligand-binding domain (Homo sapiens, UniProt P51449)?
OUTPUT: < 0.5 µM

INPUT: Please tell me: IC50 of NC(=O)CN1CC[C@](O)(Cn2ccc3c(N(Cc4ccc(C(F)(F)F)cc4)C4CC4)ncnc32)[C@@H](O)C1 (single isomer, unassigned) [Example L5-1-1-1] , system RORγ ligand-binding domain (Homo sapiens, UniProt P51449)?
OUTPUT: < 0.1 µM

----------
- measured.target: RORγ ligand-binding domain (Homo sapiens, UniProt P51449)
- Construct: Gal4 (galactose-responsive transcription factor); expressed in transfected cells; host or cells: HEK293, transient co-transfection
- test.method.notes: RORγ Reporter Assay (Gal4)
- Type: cell-based
- study.conditions: HEK293 cells, luciferase reporter, 24 h incubation, absolute IC50; read-out: IC50
measured.attribute: IC50

INPUT: Fill in: IC50 of CC(C)N(Cc1ccc(C(F)(F)F)cc1)c1ncnc2c1ncn2C[C@@H]1CCN(CC(N)=O)C[C@H]1O (racemic) is ___
OUTPUT: 77 nM

INPUT: I am curious: what IC50 value has been reported for NC(=O)CN1CCC(Cn2cnc3c(N(Cc4ccc(C(F)(F)F)cc4)C4CC4)ncnc32)CC1 ?
OUTPUT: 85 nM

INPUT: Look up IC50: NC(=O)CN1CC[C@@H](Cn2ccc3c(N(Cc4ccc(C(F)(F)F)nc4)C4CC4)ncnc32)[C@H](O)C1 (racemic)
OUTPUT: 5 nM

INPUT: Given the entry NC(=O)CN1CC[C@](O)(Cn2ccc3c(N(Cc4ccc(-n5cccn5)cc4F)C4CC4)ncnc32)[C@@H](O)C1 (relative stereo) , report its measured IC50.
OUTPUT: 4.3 nM

INPUT: Which IC50 is reported for this molecule? CCN(Cc1ccc(-c2cnn(C)c2)cc1)c1ncnc2c1ccn2C[C@@H]1CCN(CC(N)=O)C[C@H]1O (relative stereo)
OUTPUT: 12 nM

INPUT: State the recorded IC50 for this entry: NC(=O)CN1CC[C@@H](Cn2cnc3c(N(Cc4cccc(C(F)(F)F)c4)C4CC4)ncnc32)[C@H](O)C1 (racemic)
OUTPUT: > 1000 nM

Source listed as patent US11780843B2.
